# System Tested: gp120 of viral strain Bal (HIV, strain Bal)
# Protocol Summary: cell-based or functional assay
*1 amine or outer side, *2 acyl side, *3 side chain or, on linkers, in order; H or OH if unused. [ ]: non-standard residue; d: D form. U1 = 4-cyclohexylmethoxy-L-phenylalanine, O=C([C@H](Cc1ccc(OCC2CCCCC2)cc1)N[*:1])[*:2]; Tpa = thiopropionic acid
Outcome Measure: EC50 (antiviral activity, TZM-bl cells, luciferase)

Tpa-NLHKCQLRCRSLGLLGRCA[dP]T[U1]CACV-NH2 (disulfide (positions not given here)) [mCD4.3] ... 2.3 nM
M48U1-PS1 (not fully specified; N-terminal gamma-aminobutyric acid (gammaAbu) acylated with 3-thiopropionyl (from SATP); all six Tyr are sulfotyrosine (YSO3); N-terminal Tpa; D-proline at position 21; U1 (4-cyclohexylmethoxy-L-phenylalanine) at position 23; C-terminal amide; Lys11 N-epsilon carries the PEO2-maleimide linker bound to the thiol of the PS1 chain) peptide 1: NLHFCQLRCKSLGLLGRCAPTFCACV peptide 2: SYDYSYDYSYDYS ... 0.13 nM
mCD4.1-PS1 (N-terminal gamma-aminobutyric acid (gammaAbu) acylated with 3-thiopropionyl (from SATP); all six Tyr are sulfotyrosine (YSO3); N-terminal Tpa (thiopropionic acid); Bip at position 23; C-terminal …; Lys5 N-epsilon carries the PEO2-maleimide linker bound to the thiol of the PS1 chain) peptide 1: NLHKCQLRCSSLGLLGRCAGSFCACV peptide 2: SYDYSYDYSYDYS ... 0.54 nM
Tpa-NLHKCQLRCSSLGLLGRCA[dP]T[U1]CACV-NH2 (disulfide (positions not given here)) [mCD4.2] ... 2 nM
Tpa-NLHFCQLRCKSLGLLGRCA[dP]T[U1]CACV-NH2 (disulfide (positions not given here)) [M48U1] ... 0.96 nM
